Reported relative viability values for a set of molecules
tested on: SW 1573; assay: relative viability (nuclei count vs DMSO), 5 days (fraction); higher = more cells survive; conditions: first compound 0.1581 µM
Reply with just the number.

Q) Need relative viability, item Nc1ccn([C@@H]2O[C@H](CO)[C@@H](O)[C@@H]2O)c(=O)n1 [Cytarabine] + CS(=O)(=O)N1CCN(Cc2cc3nc(-c4cccc5[nH]ncc45)nc(N4CCOCC4)c3s2)CC1 [Pictilisib] (partner 1 µM)
A) 0.134

As a next step, examine the molecule that follows.
Q) Would you kindly share the measured relative viability for COc1cc2nccc(Oc3ccc(NC(=O)Nc4cc(C)on4)c(Cl)c3)c2cc1OC [Tivozanib] + COc1cccc2cc(-c3nc([C@H]4CC[C@H](C(=O)O)CC4)n4ncnc(N)c34)[nH]c12 [OSI-027] (partner 0.5 µM) ?
A) 0.366
